Where these numbers come from: patent US20190284262A1

Can you tell me Median:FITC-A for the items I'm about to list?
target system: T1, T2+EW (Homo sapiens, UniProt A*02:01)
T1 construct: on the surface of T2 cells; irrelevant control peptide; also called EW peptide/HLA-A*02:01 complex on T2 cells; T2 pulsed with EW peptide
assay details: flow cytometry, phage on T2 + EW peptide; secondary only 310, unstained 93
Numbers only.

#25 (scFv, also called EXT017-25; EXT017-25 scFv phage clone) scFv (VL-linker-VH-His/HA tag): QSVLTQPPSVSAAPGQKVTISCSGSSSNIGNNYVSWYQFLPGTAPKLLIYDNNQRPSGIPDRFSGFKSGTSATLDITGLQTGDEADYYCGTWDNSLSAAVFGRGTKLTVLGSRGGGGSGGGGSGGGGSLEMAQMQLVQSGTEVKRAGASVKVSCKASGYTFTNYYMHWVRQAPGQGLEWMGIINPSGGSTTYAQKFQGRVTMTRDTSTSTVYMELSDLGSEDTAVYYCARSWSKTEGSDRWGQGTLVTVSSTSGQAGQHHHHHHGAYPYDVPDYAS | 375

Consider the record given below.
q: Request the reported Median:FITC-A associated with #30 (scFv, also called EXT017-30; EXT017-30 scFv phage clone) scFv: SYVLTQPPSVSVAPGQTARMTCEGSNLGSKSVHWYQQKPGQAPVLVVHDDSDRPSGIPDRFSGSKSGNTATLTISRVEAGDEADYYCQVWHSSSDHYVFGTATKVTVLGSRGGGGSGGGGSGGGGSLEMAQVQLVQSGAEVKKPGASVKVSCKASGYTFTNYYIHWVRQAPGQGLEWMGIIRPSGGITNYAQKFQGRVSMTRDTSTSTVYMELSSLRSEDTAVYYCARSWHENSGVDSWGQGTLVTVSSTSGQAGQHHHHHHGAYPYDVPDYAS
a: 378
